experiment: activity coefficient (dimensionless); of the first substance listed, at infinite dilution; xn = mol fraction of the nth substance listed; details: 303.5 K; 101.3 kPa; Liquid; Chromatography; x1 = 0
The reader will find reported activity coefficient values listed item by item below.

COMPOUND: C=CCCCCCC [oct-1-ene] + CCn1cc[n+](C)c1.N#C[B-](C#N)(C#N)C#N
activity coefficient: 30.1

COMPOUND: CO [methanol] + CCn1cc[n+](C)c1.N#C[B-](C#N)(C#N)C#N
activity coefficient: 1.13

COMPOUND: CCO [ethanol] + CCn1cc[n+](C)c1.N#C[B-](C#N)(C#N)C#N
activity coefficient: 1.64

COMPOUND: C#CCCCCCC [1-octyne] + CCn1cc[n+](C)c1.N#C[B-](C#N)(C#N)C#N
activity coefficient: 9.64

COMPOUND: CCCO [propan-1-ol] + CCn1cc[n+](C)c1.N#C[B-](C#N)(C#N)C#N
activity coefficient: 2.12

COMPOUND: C#CCCCC [1-hexyne] + CCn1cc[n+](C)c1.N#C[B-](C#N)(C#N)C#N
activity coefficient: 4.18

COMPOUND: C#CCCC [1-pentyne] + CCn1cc[n+](C)c1.N#C[B-](C#N)(C#N)C#N
activity coefficient: 2.72

COMPOUND: C#CCCCCC [1-heptyne] + CCn1cc[n+](C)c1.N#C[B-](C#N)(C#N)C#N
activity coefficient: 6.33

COMPOUND: C=CCCCCCCCC [1-decene] + CCn1cc[n+](C)c1.N#C[B-](C#N)(C#N)C#N
activity coefficient: 60.5

COMPOUND: C=CCCCC [hex-1-ene] + CCn1cc[n+](C)c1.N#C[B-](C#N)(C#N)C#N
activity coefficient: 11.3
